System: HCT-116
Test: NCI tumour cell line growth inhibition, 48 h
Active and inactive are the calls of the source. No stated cut-off is given here; in the data, active = GI50 up to about 1.1 µM and inactive = higher.
Quantity Name: GI50

Consider the reported GI50 for these compounds:
INSERT INTO assay_data (compound, observed_result) VALUES
  ('COc1nc(N)c(NC2OC(CO)C(O)C2O)c(=O)[nH]1 (stereo not given)', '> 100 µM (inactive)'),
  ('CC(=O)O[C@@H]1C[C@]2(C(=O)c3ccccc3)C(=O)C(=O)S[C@]12c1ccccc1', '46.6 µM (inactive)'),
  ('COC(=O)[C@H](Cc1ccccc1)NC(=O)c1ccc(CNC(=O)/C=C/c2ccc(-c3ccccc3)cc2)cc1', '4.95 µM (inactive)'),
  ('O=c1[nH]c(=O)n([C@@H]2O[C@H](CO)[C@@H](O)[C@@H]2F)cc1I [FIALURIDINE]', '> 100 µM (inactive)'),
  ('CN(CCCNC(=O)c1cc(-c2ccccc2)nc2ccccc12)CCCNC(=O)c1cc(-c2ccccc2)nc2ccccc12', '1.79 µM (inactive)'),
  ('CC(NC1=NCCO1)c1cccs1 (stereo not given)', '20 µM (inactive)'),
  ('CCOC(=O)C(C#N)C1=CC(=O)C(=O)c2ccc(O)cc21 (stereo not given)', '55.1 µM (inactive)'),
  ('C=C(C)C12CC3CC(/C(=N/O)C(C1)/C3=N\O)[C@@]2(C)O (stereo not given in full)', '> 100 µM (inactive)');

Request the reported GI50 associated with COC1OC(CO)C(O)C(O)C1Br (stereo not given)
> 100 µM (inactive)

GI50 for `C/C(=N\NC(=S)NCCCNC(=S)N/N=C(\C)c1ccccn1)c1ccccn1` ?
2.88 µM (inactive)
